Recorded values, source patent US20210106703A1.

- Tested on: U2932 cells
- protocol: Real Time Glo viability assay, Betalutin and cell cycle inhibitors (Example 2)
- Assay type: cell-based, human
- condition-summary: Homo sapiens, U2932, U2932, drug 100 nM, (+)Betalutin, Dy4; read-out: Growth inhibition (signal treated/control; 1 = no change)
Hi there, I'd appreciate the recorded viability at 0.1 µM for every entry that follows.
Give bare numbers, in %.

C=CCn1c(=O)c2cnc(Nc3ccc(N4CCN(C)CC4)cc3)nc2n1-c1cccc(C(C)(C)O)n1 [MK-1775] :: 95
Cc1csc(-c2nnc(Nc3ccc(Oc4ncccc4-c4ccnc(N)n4)cc3)c3ccccc23)c1 [AMG 900] :: 78
Cc1nc(N)sc1-c1ccnc(Nc2ccc(N3CCOCC3)cc2)n1 [CYC116] :: 94

Please provide the recorded viability at 0.1 µM for Nc1nc(Nc2ccc(S(N)(=O)=O)cc2)nn1C(=O)c1c(F)cccc1F [JNJ-7706621] , tested on U2932 cells.
82
